Test system: C. albicans SC5314
experimental.protocol: Minimal fungicidal concentration (MFC) against C. albicans
Type: cell-based
run.parameters: Candida albicans, 24 h at 37° C. in PBS, less than 1% survival relative to DMSO control
Overview of recorded MFC for various molecules
Quick reminder: number only, in µg/mL, skip the unit.

- molecule: "CCN1CC(C)(C)OC(=O)C1CC(=O)NCc1ccccc1 (centres unmarked)"
  tested.system: "C. albicans SC5314"
  value.reported: 12.5

# context switch: different molecule, same MFC
Measured MFC, CCN1CC(C)(C)OC(=O)C1CC(=O)NC1CCc2ccccc21 (centres unmarked) : 25

====

Test system: C. albicans SC5314
experimental.protocol: Minimal fungicidal concentration (MFC) against C. albicans
Assay type: cell-based
run.parameters: Candida albicans, 24 h at 37° C. in PBS, less than 1% survival relative to DMSO control
assay.endpoint: MFC (µg/mL)
Respond with the bare value in µg/mL.

Take a look at these entries with their results.
- molecule: "CCN1CC(C)(C)OC(=O)C1CC(=O)NCc1cccc(OC)c1 (stereo not drawn)"
  value.reported: 25
- molecule: "CCN1CC(C)(C)OC(=O)C1CC(=O)NCc1ccccc1-c1ccccc1 (stereo not drawn)"
  value.reported: 12.5

Now consider a different molecule.
MFC recorded for this molecule, CCN1C[C@H](c2ccccc2)OC(=O)C1CC(=O)Nc1ccc(C(C)C)cc1 (stereo partly drawn) , is 12.5
